System: Human alphaherpesvirus 1
protocol.description: Evaluated for DNA polymerase inhibition activity against herpes simplex virus-1 (HSV-1)
Format: functional
# maps each entry to its Inhibition
parameter: Inhibition (%)

Nc1nc2c(ncn2COCCO)c(=O)[nH]1
85
Nc1nc2c(ncn2COC(CO)CO)c(=O)[nH]1
55
Nc1nc(O)c2ncn(COCC(O)CO)c2n1 (single isomer, unassigned; form 2)
57
Nc1nc(O)c2ncn(COCC(O)CO)c2n1 (single isomer, unassigned; form 1)
7
